- System: SpTbr T-box DNA-binding domain (GST fusion);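 note: protein at 200 nM in PBS on universal double-stranded arrays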
- Sequence: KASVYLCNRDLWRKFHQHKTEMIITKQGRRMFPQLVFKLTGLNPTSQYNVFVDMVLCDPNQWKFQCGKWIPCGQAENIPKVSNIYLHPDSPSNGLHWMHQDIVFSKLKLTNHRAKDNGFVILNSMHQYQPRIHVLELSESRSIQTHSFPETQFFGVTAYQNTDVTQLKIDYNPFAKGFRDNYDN
- PROTOCOL NOTES: PBM E-score of 8-mer (E-score (dimensionless, -0.5 to 0.5)); higher = stronger binding preference
- RUN PARAMETERS: the construct has about 5 more residues each side
Whole data set: some 33,000 sequences, median “E-score (dimensionless, -0.5 to 0.5)” near -0.046, cut for the highest 2% near 0.36. What follows is part of a selection rich in the highest values, with near analogues and random picks from the rest.
Range-based classes on measured PBM E-score of 8-mer: 0 = under 0.09, 1 = from 0.09 up to 0.3, 2 = 0.3 and over

Before answering, review these 5 worked examples.
{"RESIDUE STRING": "AGCAAAAG", "ASSIGNED CLASS": 0}
{"RESIDUE STRING": "AACCTTGG", "ASSIGNED CLASS": 0}
{"RESIDUE STRING": "AGCGTGAC", "ASSIGNED CLASS": 2}
{"RESIDUE STRING": "ACACGTCA", "ASSIGNED CLASS": 2}
{"RESIDUE STRING": "CTTGCCAA", "ASSIGNED CLASS": 1}

Query sequence follows.
Please indicate the class for ACACGTCG based on its PBM E-score of 8-mer.
2

* * *

- System: SpTbr T-box DNA-binding domain (GST fusion);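 note: protein at 200 nM in PBS on universal double-stranded arrays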
- Sequence: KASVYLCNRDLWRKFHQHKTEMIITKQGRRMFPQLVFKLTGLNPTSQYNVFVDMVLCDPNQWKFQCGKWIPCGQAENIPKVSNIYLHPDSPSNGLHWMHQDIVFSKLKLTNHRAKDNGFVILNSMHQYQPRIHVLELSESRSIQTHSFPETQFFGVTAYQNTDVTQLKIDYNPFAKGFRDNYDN
- PROTOCOL NOTES: PBM E-score of 8-mer (E-score (dimensionless, -0.5 to 0.5)); higher = stronger binding preference
- RUN PARAMETERS: target sequence: T-box / the construct has about 5 more residues each side
The full ranking holds about 33,000 sequences; the median of “E-score (dimensionless, -0.5 to 0.5)” is about -0.046, and the highest 2% start at about 0.36. This excerpt belongs to a sample that is enriched for the highest values.
PBM E-score of 8-mer values, listed per item

Field: example entries. Status: answers known.
{"RESIDUE STRING": "CCGGTTCC", "MEASURED PARAMETER": "PBM E-score of 8-mer", "RESULT": -0.27}
{"RESIDUE STRING": "ATCGTTGC", "MEASURED PARAMETER": "PBM E-score of 8-mer", "RESULT": -0.00439}
{"RESIDUE STRING": "GGCCCAGA", "MEASURED PARAMETER": "PBM E-score of 8-mer", "RESULT": -0.289}
{"RESIDUE STRING": "ACACTCAC", "MEASURED PARAMETER": "PBM E-score of 8-mer", "RESULT": 0.366}
{"RESIDUE STRING": "CCACCTGC", "MEASURED PARAMETER": "PBM E-score of 8-mer", "RESULT": 0.269}

What is its PBM E-score of 8-mer for SpTbr T-box DNA-binding domain (GST fusion)? Entry: ACACTCAG
0.232

Now consider ATAGCACG and answer again.
0.34

Now consider ACTAGGTG and answer again.
0.403

Now consider ATGGTGGC and answer again.
0.274

Now consider AAGTGTTA and answer again.
0.451

Now consider AAGTGTTG and answer again.
0.422

Now consider ACAAGTGA and answer again.
0.243

Now consider ACACCTTC and answer again.
0.475

* * *

- System: SpTbr T-box DNA-binding domain (GST fusion);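 note: protein at 200 nM in PBS on universal double-stranded arrays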
- Sequence: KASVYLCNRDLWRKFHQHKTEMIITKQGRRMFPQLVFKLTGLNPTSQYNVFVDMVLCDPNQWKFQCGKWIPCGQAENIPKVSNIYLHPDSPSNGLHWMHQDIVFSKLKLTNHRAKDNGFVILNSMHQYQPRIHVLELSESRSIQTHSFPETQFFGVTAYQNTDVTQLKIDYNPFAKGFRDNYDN
- PROTOCOL NOTES: PBM E-score of 8-mer (E-score (dimensionless, -0.5 to 0.5)); higher = stronger binding preference
- RUN PARAMETERS: target sequence: T-box / the construct has about 5 more residues each side
Whole data set: some 33,000 sequences, median “E-score (dimensionless, -0.5 to 0.5)” near -0.046, cut for the highest 2% near 0.36. For the sample, the highest values were picked, then their nearest neighbours and some sequences at random.
MEASURED PARAMETER: PBM E-score of 8-mer
The answer should be a number; do not append a unit.

Field: example entries. Status: answers known.
{"RESIDUE STRING": "ATGTCTAG", "MEASURED PARAMETER": "PBM E-score of 8-mer", "NUMERIC VALUE": -0.0188}
{"RESIDUE STRING": "AAGTAGAA", "MEASURED PARAMETER": "PBM E-score of 8-mer", "NUMERIC VALUE": 0.0466}
{"RESIDUE STRING": "AGCGTCAC", "MEASURED PARAMETER": "PBM E-score of 8-mer", "NUMERIC VALUE": 0.333}
{"RESIDUE STRING": "CGTTTCAA", "MEASURED PARAMETER": "PBM E-score of 8-mer", "NUMERIC VALUE": -0.029}
{"RESIDUE STRING": "GATCGGAC", "MEASURED PARAMETER": "PBM E-score of 8-mer", "NUMERIC VALUE": -0.287}

Could you share which PBM E-score of 8-mer value was measured for GTTGTCTA ?
-0.123

* * *

- Test system: SpTbr T-box DNA-binding domain (GST fusion);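 note: protein at 200 nM in PBS on universal double-stranded arrays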
- Sequence: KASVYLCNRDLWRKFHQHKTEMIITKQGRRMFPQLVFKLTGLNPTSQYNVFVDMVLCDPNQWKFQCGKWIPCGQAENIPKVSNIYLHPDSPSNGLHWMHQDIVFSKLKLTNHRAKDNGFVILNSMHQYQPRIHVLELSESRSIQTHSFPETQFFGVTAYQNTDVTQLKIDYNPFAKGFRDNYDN
- PROTOCOL NOTES: PBM E-score of 8-mer (E-score (dimensionless, -0.5 to 0.5)); higher = stronger binding preference
- RUN PARAMETERS: target sequence: T-box / the construct has about 5 more residues each side
Over roughly 33,000 sequences, “E-score (dimensionless, -0.5 to 0.5)” has its median near -0.046; the highest 2% begin near 0.36. The sample holds the highest values, similar sequences and a random draw of the others, so the mix is not that of the screen.
PBM E-score of 8-mer values, listed per item
The answer should be a number; do not append a unit.

{"RESIDUE STRING": "AACACCAA", "PBM E-score of 8-mer": 0.356}
{"RESIDUE STRING": "CTTCACTA", "PBM E-score of 8-mer": 0.0992}
{"RESIDUE STRING": "CGTAACAC", "PBM E-score of 8-mer": 0.31}
{"RESIDUE STRING": "TGCATTAA", "PBM E-score of 8-mer": 0.022}
{"RESIDUE STRING": "GGTGAACA", "PBM E-score of 8-mer": -0.0711}

Kindly consider the entry below.
Could you share which PBM E-score of 8-mer value was measured for GACCTTGA ?
-0.145

* * *

- Test system: SpTbr T-box DNA-binding domain (GST fusion);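 note: protein at 200 nM in PBS on universal double-stranded arrays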
- Sequence: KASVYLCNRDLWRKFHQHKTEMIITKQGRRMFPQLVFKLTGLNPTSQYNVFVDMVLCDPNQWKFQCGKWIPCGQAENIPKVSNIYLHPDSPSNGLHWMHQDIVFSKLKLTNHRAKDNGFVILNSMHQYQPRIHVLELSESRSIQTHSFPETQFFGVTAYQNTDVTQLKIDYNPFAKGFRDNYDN
- PROTOCOL NOTES: PBM E-score of 8-mer (E-score (dimensionless, -0.5 to 0.5)); Tbr is Tbrain of the sea star Patiria miniata (Pm) or the sea urchin Strongylocentrotus purpuratus (Sp); higher = stronger binding preference
- RUN PARAMETERS: target sequence: T-box / the construct has about 5 more residues each side
The full ranking holds about 33,000 sequences; the median of “E-score (dimensionless, -0.5 to 0.5)” is about -0.046, and the highest 2% start at about 0.36. Shown is part of a subset that was picked to be rich in the highest values.
PBM E-score of 8-mer values, listed per item
The answer should be a number; do not append a unit.

Field: example entries. Status: answers known.
{"RESIDUE STRING": "AAGGTGAA", "STUDY TARGET": "SpTbr T-box DNA-binding domain (GST fusion)", "PBM E-score of 8-mer": 0.187}
{"RESIDUE STRING": "AAAAGTGG", "STUDY TARGET": "SpTbr T-box DNA-binding domain (GST fusion)", "PBM E-score of 8-mer": 0.118}
{"RESIDUE STRING": "AAGGTGAC", "STUDY TARGET": "SpTbr T-box DNA-binding domain (GST fusion)", "PBM E-score of 8-mer": 0.381}
{"RESIDUE STRING": "ACACTCCT", "STUDY TARGET": "SpTbr T-box DNA-binding domain (GST fusion)", "PBM E-score of 8-mer": 0.193}
{"RESIDUE STRING": "ACAGTGTA", "STUDY TARGET": "SpTbr T-box DNA-binding domain (GST fusion)", "PBM E-score of 8-mer": 0.0565}
{"RESIDUE STRING": "ATAGCACC", "STUDY TARGET": "SpTbr T-box DNA-binding domain (GST fusion)", "PBM E-score of 8-mer": 0.387}
{"RESIDUE STRING": "GGAGAACC", "STUDY TARGET": "SpTbr T-box DNA-binding domain (GST fusion)", "PBM E-score of 8-mer": 0.0265}
{"RESIDUE STRING": "CTAGCACA", "STUDY TARGET": "SpTbr T-box DNA-binding domain (GST fusion)", "PBM E-score of 8-mer": 0.271}
{"RESIDUE STRING": "AGTAGGTC", "STUDY TARGET": "SpTbr T-box DNA-binding domain (GST fusion)", "PBM E-score of 8-mer": -0.0701}
{"RESIDUE STRING": "CAGAGCAG", "STUDY TARGET": "SpTbr T-box DNA-binding domain (GST fusion)", "PBM E-score of 8-mer": -0.246}

Could you share which PBM E-score of 8-mer value was measured for CGCGACCG ?
0.29

Now consider AAAAGGTC and answer again.
-0.00656
